target: KRAS G12S (Homo sapiens (Human), UniProt P01116+P62937, G12S); assay: Ras-Raf disruption/FRET/MOA assay, KRAS G12S; assay type: biochemical; conditions: read-out: KRAS G12S FRET IC50
Sequence (P01116 other isoform, or with tags, fused parts or gaps G12S): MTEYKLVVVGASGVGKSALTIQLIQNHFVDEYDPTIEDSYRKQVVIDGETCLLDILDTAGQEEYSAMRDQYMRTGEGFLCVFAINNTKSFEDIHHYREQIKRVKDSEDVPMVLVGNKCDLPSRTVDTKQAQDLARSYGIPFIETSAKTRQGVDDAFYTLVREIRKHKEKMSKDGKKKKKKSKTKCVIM
Sequence (P62937 whole entry): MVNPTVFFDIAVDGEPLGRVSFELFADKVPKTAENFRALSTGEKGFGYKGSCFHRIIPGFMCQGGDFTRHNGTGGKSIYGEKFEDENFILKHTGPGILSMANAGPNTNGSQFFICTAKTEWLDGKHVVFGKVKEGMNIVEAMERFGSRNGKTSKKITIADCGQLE
pIC50: −log10 of the molar value.
This listing pairs molecules with measured pIC50.

Task: Item CCn1c(-c2cnccc2COC)c2c3cc(ccc31)-c1cccc(c1)C[C@H](NC(=O)[C@H](C(C)C)N(C)C(=O)CCN=C=Nc1ccccc1COC)C(=O)N1CCC[C@H](N1)C(=O)OCC(C)(C)C2 with KRAS G12S (Homo sapiens (Human), UniProt P01116+P62937, G12S) - pIC50?
Result: 5.00 to 6.00

Task: Next molecule: CCn1c(-c2cccnc2COC)c2c3cc(ccc31)-c1cc(O)cc(c1)C[C@H](NC(=O)[C@H](C(C)C)N(C)C(=O)CNC1=NCCO1)C(=O)N1CCC[C@H](N1)C(=O)OCC(C)(C)C2
Result: < 5.00

Task: Next molecule: CCn1c(-c2cnccc2COC)c2c3cc(ccc31)-c1cc(O)cc(c1)C[C@H](NC(=O)[C@H](C(C)C)N(C)C(=O)[C@H]1CCN(C(=O)[C@H]3CN3)C1)C(=O)N1CCC[C@H](N1)C(=O)OCC(C)(C)C2
Result: 7.00 to 8.00

Task: Next molecule: CCn1c(-c2cnccc2COC)c2c3cc(ccc31)-c1cc(O)cc(c1)C[C@H](NC(=O)[C@@H](CN(C)C(=O)[C@H]1CN1)C(C)C)C(=O)N1CCC[C@H](N1)C(=O)OCC(C)(C)C2
Result: < 5.00

***
Task: Item CCn1c(-c2cnccc2COC)c2c3cc(ccc31)-c1cc(O)cc(c1)C[C@H](NC(=O)[C@H](C(C)C)N(C)C(=O)C1CCN(C(=O)[C@H]3CN3)CC1)C(=O)N1CCC[C@H](N1)C(=O)OCC(C)(C)C2 with KRAS G12S (Homo sapiens (Human), UniProt P01116+P62937, G12S) - pIC50?
Result: 6.00 to 7.00

Task: Next molecule: CCn1c(-c2cnccc2COC)c2c3cc(ccc31)-c1cc(O)cc(c1)C[C@H](NC(=O)[C@H](C(C)C)N(C)C(=O)N1CCCN(C(=O)[C@@H]3CN3)CC1)C(=O)N1CCC[C@H](N1)C(=O)OCC(C)(C)C2
Result: 6.00 to 7.00

Task: Next molecule: CCn1c(-c2cnccc2COC)c2c3cc(ccc31)-c1cccc(c1)C[C@H](NC(=O)[C@H](C(C)C)N1CC[C@H](CN=C=Nc3ccc(OC)cc3)C1)C(=O)N1CCC[C@H](N1)C(=O)OCC(C)(C)C2
Result: < 5.00

Task: Next molecule: CCn1c(-c2cnccc2COC)c2c3cc(ccc31)-c1cc(O)cc(c1)C[C@H](NC(=O)[C@H](C(C)C)N(C)C(=O)[C@H]1CCN(C(=O)[C@@H]3CO3)C1)C(=O)N1CCC[C@H](N1)C(=O)OCC(C)(C)C2
Result: 6.00 to 7.00

Task: Next molecule: CCn1c(-c2cccnc2COC)c2c3cc(ccc31)-c1cc(O)cc(c1)C[C@H](NC(=O)[C@H](C(C)C)N(C)C(=O)CCNC1=NCCO1)C(=O)N1CCC[C@H](N1)C(=O)OCC(C)(C)C2
Result: < 5.00

Task: Next molecule: CCn1c(-c2cnccc2COC)c2c3cc(ccc31)-c1cc(O)cc(c1)C[C@H](NC(=O)[C@H](C(C)C)N(C)C(=O)CCN(C)C(=O)[C@@H]1CN1)C(=O)N1CCC[C@H](N1)C(=O)OCC(C)(C)C2
Result: 6.00 to 7.00

Task: Next molecule: CCn1c(-c2cnccc2COC)c2c3cc(ccc31)-c1cc(O)cc(c1)C[C@H](NC(=O)[C@H](C(C)C)N(C)C(=O)[C@H]1CCN(C(=O)[C@@H]3CN3)C1)C(=O)N1CCC[C@H](N1)C(=O)OCC(C)(C)C2
Result: 6.00 to 7.00

Task: Next molecule: CCn1c(-c2cnccc2COC)c2c3cc(ccc31)-c1cc(O)cc(c1)C[C@H](NC(=O)[C@H](C(C)C)N(C)C(=O)CCN(C)C(=O)[C@H]1CN1)C(=O)N1CCC[C@H](N1)C(=O)OCC(C)(C)C2 (single isomer, unassigned)
Result: 6.00 to 7.00

Task: Next molecule: CCn1c(-c2cnccc2COC)c2c3cc(ccc31)-c1cccc(c1)C[C@H](NC(=O)[C@H](C(C)C)N(C)C(=O)CCN=C=Nc1ccc(N3CCOCC3)cc1)C(=O)N1CCC[C@H](N1)C(=O)OCC(C)(C)C2
Result: 5.00 to 6.00

Task: Next molecule: CCn1c(-c2cnccc2COC)c2c3cc(ccc31)-c1cc(O)cc(c1)C[C@H](NC(=O)[C@@H](CCNC(=O)NCCCl)C(C)C)C(=O)N1CCC[C@H](N1)C(=O)OCC(C)(C)C2
Result: < 5.00
